- Method notes: Cytotoxicity against human Huh-7 cells assessed as reduction in cell viability incubated for 48 hrs by celltiter glo luminescent assay
- Type: cell-based
- Experimental context: Huh-7 cells
Metric: CC50 at 48 h (µM)
Numbers only, in µM.

The examples below pair each entry with its known result.
What value of CC50 at 48 h has been reported for the following compound? O=C(c1cc(-c2ccccc2)c(=O)n2c1sc1ccc(OC3CCCCC3)cc12)N1CCCC(O)C1 (racemic)
22.2

Fill blank: measured CC50 at 48 h of the compound `NC(=O)CCNC(=O)c1cc(-c2ccccc2)c(=O)n2c1sc1ccc(OC3CCCCC3)cc12` is ____.
52.3

Which CC50 at 48 h value is on record for O=C(O)CC(NC(=O)c1cc(-c2ccccc2)c(=O)n2c1sc1ccc(OC3CCCCC3)cc12)c1ccccc1 (racemic) ?
100

Would you mind telling me what CC50 at 48 h value was observed for `C[C@@H](CO)NC(=O)c1cc(-c2ccccc2)c(=O)n2c1sc1ccc(OC3CCCCC3)cc12` ?
21.7

GET /values?readout=CC50 at 48 h&item= `C[C@H](CO)NC(=O)c1cc(-c2ccccc2)c(=O)n2c1sc1ccc(OC3CCCCC3)cc12`
17.9

Query (compound): `O=C(NCC1(C(=O)O)CC1)c1cc(-c2ccccc2)c(=O)n2c1sc1ccc(OC3CCCCC3)cc12` ; field requested: CC50 at 48 h
100

Quick one: CC50 at 48 h of CC(C)C(CC(=O)O)NC(=O)c1cc(-c2ccccc2)c(=O)n2c1sc1ccc(OC3CCCCC3)cc12 (racemic) ?
100

Moving on to the next compound.
GET /values?readout=CC50 at 48 h&item= `CC(C)(CC(=O)O)NC(=O)c1cc(-c2ccccc2)c(=O)n2c1sc1ccc(OC3CCCCC3)cc12`
100

----------
- Test system: dengue virus type 2
- Method notes: Antiviral activity against dengue virus 2 EDEN 3295 infected in human Huh-7 cells assessed as reduction in virus replication incubated for 48 hrs by plaque reduction assay
- Assay type: functional, organism-based
- Experimental context: EDEN 3295, Huh-7, 48 h
Metric: EC50 (µM)
Give bare numbers, in µM.

What does the record list as EC50 for `C[C@@H](CO)NC(=O)c1cc(-c2ccccc2)c(=O)n2c1sc1ccc(OC3CCCCC3)cc12` ?
1.1

Could you tell me which EC50 is on file for `C[C@H](CO)NC(=O)c1cc(-c2ccccc2)c(=O)n2c1sc1ccc(OC3CCCCC3)cc12` ?
5.8

Please state, for each entry, its recorded EC50.
1. CC(C)C(CC(=O)O)NC(=O)c1cc(-c2ccccc2)c(=O)n2c1sc1ccc(OC3CCCCC3)cc12 (racemic)
2. CC(C)(CC(=O)O)NC(=O)c1cc(-c2ccccc2)c(=O)n2c1sc1ccc(OC3CCCCC3)cc12
3. O=C(NCC1(C(=O)O)CC1)c1cc(-c2ccccc2)c(=O)n2c1sc1ccc(OC3CCCCC3)cc12
4. O=C(O)CC(NC(=O)c1cc(-c2ccccc2)c(=O)n2c1sc1ccc(OC3CCCCC3)cc12)c1ccccc1 (racemic)

1: 8.4; 2: 3.1; 3: 7.5; 4: 1.2

Below are 3 compounds. Give each one its EC50.
1. O=C(O)C1CCN(C(=O)c2cc(-c3ccccc3)c(=O)n3c2sc2ccc(OC4CCCCC4)cc23)C1 (racemic)
2. O=C(c1cc(-c2ccccc2)c(=O)n2c1sc1ccc(OC3CCCCC3)cc12)N1CCCC(O)C1 (racemic)
3. NC(=O)CCNC(=O)c1cc(-c2ccccc2)c(=O)n2c1sc1ccc(OC3CCCCC3)cc12

1. 6.4
2. 1.3
3. 0.9

Source: ChEMBL document CHEMBL4732102
